Details: in acetonitrile, 328.15 K
Assay metric: solubility (mole fraction)
API doc: respond with a numeric literal and nothing else, no unit.

solubility (mole fraction) lookup needed for `O=c1[nH]c2ccccc2c(=O)o1` , thanks.
0.00797

---

Settings: in 2-butanone, 303.15 K
Assay metric: solubility (mole fraction)
Give only the figure.

May I ask what solubility (mole fraction) has been recorded for `O=c1[nH]c2ccccc2c(=O)o1` ?
0.00964

---

Conditions: in ethyl acetate, 288.15 K
Assay metric: solubility (mole fraction)
Reply: number alone, nothing else.

Entry `O=c1[nH]c2ccccc2c(=O)o1` has what solubility (mole fraction)?
0.0032

---

Settings: in acetone, 328.15 K
Assay metric: solubility (mole fraction)
// response body must contain only the number

What does the record list as solubility (mole fraction) for `O=c1[nH]c2ccccc2c(=O)o1` ?
0.0184

---

Settings: in isopropanol, 288.15 K
Assay metric: solubility (mole fraction)
// keep it numeric: no unit symbol after the value

Which measured solubility (mole fraction) value corresponds to `O=c1[nH]c2ccccc2c(=O)o1` ?
0.00104

---

Settings: in 2-butanone, 298.15 K
Assay metric: solubility (mole fraction)
Answer using only a numeral; do not append any unit.

// query solubility (mole fraction) value for entry `O=c1[nH]c2ccccc2c(=O)o1`
0.00877

---

Details: in isopropyl acetate, 323.15 K
Assay metric: solubility (mole fraction)
# output: bare number, no unit

Reported solubility (mole fraction) for `O=c1[nH]c2ccccc2c(=O)o1` : what is it?
0.00396
